For reference, muscarinic M3 receptor-positive allosteric modulator activity, 1 μM (-fold shift) measured on human muscarinic M3 receptor (Homo sapiens, UniProt P20309):
Assay Readout: muscarinic M3 receptor-positive allosteric modulator activity, 1 μM (-fold shift)

# Smiles Data, Result
rows = [
    ("C[C@@H]1CCCN1Cc1sc(NC(=O)c2cnc(N3CCN(CC(=O)O)CC3)cn2)nc1-c1ccc(F)c(C(F)(F)F)c1", "35 -fold shift"),
    ("C[C@@H]1CCCN1Cc1sc(NC(=O)c2cnc(N3CCN(CC(=O)O)CC3)cn2)nc1-c1cc(Cl)cs1", "102 -fold shift"),
    ("C[C@@H]1CCCN1Cc1sc(NC(=O)c2cnc(N3CCN(CC(=O)O)CC3)cn2)nc1-c1cc(C(F)(F)F)cs1", "202 -fold shift"),
    ("CC(C)CN(C)Cc1sc(NC(=O)c2cnc(N3CCN(CCC(=O)O)CC3)cn2)nc1-c1cc(F)cc(C(F)(F)F)c1", "73 -fold shift"),
    ("CC[C@@H]1CCCN1Cc1sc(NC(=O)c2cnc(N3CCN(CCC(=O)O)[C@@H](C)C3)cn2)nc1-c1cc(Cl)cs1", "89 -fold shift"),
    ("C[C@@H]1CCCN1Cc1sc(NC(=O)c2cnc(N3CCN(CCC(=O)O)CC3)cn2)nc1-c1cc(Cl)cc(C(F)(F)F)c1", "33 -fold shift"),
    ("C[C@@H]1CCCN1Cc1sc(NC(=O)c2cnc(N3CCN(CCC(=O)O)CC3)cn2)nc1-c1cc(F)cc(C(F)(F)F)c1", "67 -fold shift"),
]
